# Test system: Escherichia coli TOP10;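 further: peptides expressed intracellularly from a pBAD plasmid library in pooled LB shake-flask culture, induced with 0.3% L-arabinose, DNA abundance read by NGS, three biological replicates, DESeq2 with apeglm shrinkage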
# assay.name: shrunken log2 fold change of peptide-encoding DNA abundance (4.5 h post-induction vs induction); higher = less antimicrobial activity (less host growth inhibition)
# condition.description: time post-induction: 4.5 h; library: site-saturation at positions 5, 18, 19, 20
test.readout: shrunken log2 fold change
The reply should be a number, written without any unit.

Would you please look over these solved cases?
sequence.string | shrunken log2 fold change
RRIRTRPPRLPRPRPRPQNFPRP | -0.18
RRIRQRPPRLPRPRPRPDWYPRP | -0.32

Returns the measured shrunken log2 fold change for the input sequence. Input: RRIRERPPRLPRPRPRPLVTPRP
0.503

And RRIRCRPPRLPRPRPRPCASPRP ?
0.0454

And RRIRHRPPRLPRPRPRPIIGPRP ?
-0.00804

And RRIRNRPPRLPRPRPRPKMNPRP ?
-0.381

And RRIRLRPPRLPRPRPRPLEKPRP ?
-0.0425

The reported numbers originate from the supplement of paper PMC9112550.
